Below: a set of entries, each annotated with reported EC50, neutralization of spike pseudotyped virus.
- systemName: SARS-COV-2 spike, Beta variant (B.1.351) (SARS-COV-2, UniProt P0DTC2 14-1273)
- testSummary: cell-based or functional assay
parameter: EC50, neutralization of spike pseudotyped virus (nM)

binder | assayValue
AP1A5 Nb-huFc (Fc fusion) EVQLQASGGGFVQPGGSLRLSCAASGSTASHYTMGWFRQAPGKEREFVSAISSGRDHAKQYADSVKGRFTISRDNSKNTVYLQMNSLRAEDTATYYCAYEEINATQKDTLYWGQGTQVTVSS | 198
BP2A6 Nb-huFc (Fc fusion) EVQLQASGGGFVQPGGSLRLSCAASGQTFSHYIMGWFRQAPGKEREFVSAISAGQGHATYYADSVKGRFTISRDNSKNTVYLQMNSLRAEDTATYYCAKYQDTIAPLYWGQGTQVTVSS | 0.34
AP1B6 Nb-huFc (Fc fusion) EVQLQASGGGFVQPGGSLRLSCAASGSAFQIYAMGWFRQAPGKEREFVSAISSTDSETDHYADSVKGRFTISRDNSKNTVYLQMNSLRAEDTATYYCAVNGFDYAHSKAGPQVYWGQGTQVTVSS | 0.12
AP1D4 Nb-huFc (Fc fusion) EVQLQASGGGFVQPGGSLRLSCAASGHTFDAHRMGWFRQAPGKEREFVSAISSWGQSSTYYADSVKGRFTISRDNSKNTVYLQMNSLRAEDTATYYCAQTDEGNQYVYWGQGTQVTVSS | 627
AP1C3 Nb-huFc (Fc fusion) EVQLQASGGGFVQPGGSLRLSCAASGRTYRGYSMGWFRQAPGKEREFVSAISSWSDDWTAYADSVKGRFTISRDNSKNTVYLQMNSLRAEDTATYYCAWQYIDEIQYYWGQGTQVTVSS | 338
BP1A10 Nb-huFc (Fc fusion) EVQLQASGGGFVQPGGSLRLSCAASGQPSDRYIMGWFRQAPGKEREFVSAISQGAANKTAYADSVKGRFTISRDNSKNTVYLQMNSLRAEDTATYYCATHFNWQNYSYWGQGTQVTVSS | 4.32
